Tested on: Zucchini plants
Assay: Peroxydasic activity in treated zucchini plants
Assay type: in vivo
Conditions: zucchini plants aged 3 weeks; product 3.5 mg/L
Measured Property: Peroxydasic activity

>>> value_observed("C[C@H](N)C(=O)O [Alanine, reference compound]")
"65.78 ΔDO/min/aMF"
>>> value_observed("CC(C)(N)C(=O)O [Aib, α-aminoisobutyric acid, reference compound]")
"53.1 ΔDO/min/aMF"
>>> value_observed("NCCCC(=O)O [GABA, γ-aminobutyric acid, reference compound]")
"49.1 ΔDO/min/aMF"
>>> value_observed("CC(N)CO (stereo not shown) [Alininol, Alaninol, reference compound]")
"69.46 ΔDO/min/aMF"
